# credit: paper PMC5540273

The molecules listed here are annotated with their %Inh.
# System: NEK5
# Condition parameters: concentration: 1 μM,replicates: in singlicate; n = 1;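 note: KINOMEscan kinase panel screen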
The reply should be a number in %, with the unit left off.

Cl.Cl.NC[C@H](CC1CCCCC1)NC(=O)c1ccc(-c2ccnc3[nH]ccc23)s1 [GSK1581428]; 15
Cc1n[nH]c2cc(Nc3ccnc(Nc4cccc(CN5CCOCC5)c4)n3)ccc12 [GW682569]; 29
CCN1CCN(CCCC(=O)Nc2n[nH]c3nc(-c4ccc(O)cc4)c(Br)cc23)CC1 [SB-731579]; 0
O=C(NOCC1CC1)c1cc(Br)c(F)c(F)c1Nc1ccc(I)cc1Cl; 0

Short answer for CC(=O)Nc1ccc(-c2cc3ncnc(SCC(=O)O)c3s2)cc1 : %Inh was 0

%Inh reported for this molecule O=C(Nc1ccccc1)c1cccc(Oc2ccc3nccn3n2)c1 : 12

For record CC(=O)c1c(-c2ccncc2)[nH]c(-c2ccncc2)c1C [GW493036] the listed %Inh is 19

Reported %Inh for COc1cc2c(Nc3ccc(NC(=O)c4ccccc4)cc3)ncnc2cc1OCCCN1CCOCC1 [GSK301329] was 0

Lab book: %Inh of FC(F)(F)c1cc(Br)cc(Nc2nccc(-c3cnn4ncccc34)n2)c1 [GW810578] noted as 30

====

# Test system: MKNK1
# Condition parameters: concentration: 1 μM,replicates: in singlicate; n = 1
%Inh values for the compounds below.
Report as: number unit

Example compounds with recorded %Inh:
O=C(Nc1cccc(Oc2ccc3nccn3n2)c1)Nc1cccc(C(F)(F)F)c1; 8%
COc1cccc(CNC(=O)NC2CCN(c3ccnc(Nc4cc(OC)c(OC)c(OC)c4)n3)C2)c1 (stereo not drawn) [GSK1379765]; 21%
COC(=O)c1cccc(NC(=O)NC2CCN(c3ccnc(NCc4ccc(F)cc4)n3)CC2)c1 [GSK1379860]; 0%
CC(=O)Nc1ccc(-c2cc3ncnc(SCC(=O)O)c3s2)cc1; 0%

%Inh in this record for Cc1ccc2c(-c3ccnc(Nc4ccc(C(F)(F)F)cc4)n3)cnn2n1 [GW819776] : 0%

Form field %Inh, entry CC(=O)c1c(-c2ccncc2)[nH]c(-c2ccncc2)c1C [GW493036] : 14%

Reported %Inh ( O=C(NOCC1CC1)c1cc(Br)c(F)c(F)c1Nc1ccc(I)cc1Cl ) = 10%

Summary for this compound, O=C(Nc1ccccc1)c1cccc(Oc2ccc3nccn3n2)c1 : %Inh is 7%

Per the record, Cl.c1ccc(Oc2ccc(Nc3ccnc4cc(-c5ccc(CN6CCNCC6)o5)ccc34)cc2)nc1 [GW567142] has %Inh of 0%

====

# Tested on: ZAP70
# Condition parameters: concentration: 1 μM,replicates: in singlicate; n = 1
In this section we review reported %Inh values for a set of compounds.
# output: number + unit

Worked examples follow.
CN1CCN(CCNc2nc3cc(Oc4ccc(NC(=O)Nc5cc(C(F)(F)F)ccc5F)cc4)ccc3[nH]2)CC1.Cl.Cl [GW768504]; 12%
NC(=O)Nc1sc(-c2ccc(F)cc2)cc1C(N)=O [GW789449]; 5%
Cn1cc(-c2cccc3c(N)c(C(N)=O)nnc23)cn1; 9%

Entry under test: COc1cc2ncn(-c3cc(OCC4CCCCC4)c(C(N)=O)s3)c2cc1OC [GSK204559] . Its %Inh was 0%

// recorded %Inh for Cc1ccc(Nc2ccnc(Nc3ccc4c(c3)CS(=O)(=O)C4)n2)cc1O.Cl [GW579362] : 37%

Field %Inh (entry Cn1ccc2ncnc(Oc3ccc(NC(=O)Nc4cccc(C(F)(F)F)c4)c(F)c3)c21 ) reads 1%

According to the records, this compound C[C@@H]1CNc2c(sc3ccc4nc(-c5ccncc5)ccc4c23)C(=O)N1 displays %Inh of 0%

Notebook: Cc1cccc(-c2nc(Nc3ccncc3)c3sccc3n2)n1 [GW869641] , %Inh read as 14%

// %Inh value for COc1cccc(OC)c1C(=O)Nc1cccc(-c2nn3ccccc3c2-c2ccnc(Nc3cccc(F)c3)n2)c1 [GSK361065] : 0%

====

# System: HIPK2
# Condition parameters: concentration: 1 μM,replicates: in singlicate; n = 1
Experimental readout: %Inh

Solved cases below.
CN1CCN(CCNc2nc3cc(Oc4ccc(NC(=O)Nc5cc(C(F)(F)F)ccc5F)cc4)ccc3[nH]2)CC1.Cl.Cl; 0%
COc1cccc(C2=C(Nc3cccc(Cl)c3)C(=O)NC2=O)c1; 0%
O=C1NCCc2[nH]c(-c3ccncc3)cc21; 97.2%

Okay, now this molecule:
FC(F)(F)c1cc(Br)cc(Nc2nccc(-c3cnn4ncccc34)n2)c1 yielded %Inh of 99.4%

====

The entries below come with measured %Inh values attached.
# System: NEK5
# Condition parameters: concentration: 1 μM,replicates: in singlicate; n = 1
State the answer as a number, implicitly in %.

COc1cc2ncn(-c3cc(OCC4CCCCC4)c(C(N)=O)s3)c2cc1OC; 9

Entry O=c1[nH]cc(-c2ccc(O)cc2)c2sc(-c3ccncc3)cc12 ; %Inh = 17

Item: CC(C)S(=O)(=O)N1CCN(Cc2ccc3c(c2)nc(NC(=O)c2ccsc2)n3C[C@H](O)c2ccccc2)CC1 | %Inh: 8

Query C[C@@H]1CNc2c(sc3ccc4nc(-c5ccc(O)cc5)ccc4c23)C(=O)N1 yields %Inh of 0

Lab book: %Inh of O=C(Nc1n[nH]c2cc(-c3ccco3)ccc12)C1CC1 noted as 0

====

# System: LKB1
# Construct: gene STK11
# Condition parameters: concentration: 1 μM,replicates: in singlicate; n = 1
Experimental readout: %Inh (%)
Just the number please, in %, no unit attached.

Consider the worked cases shown below.
COc1cc(Nc2nccc(N3CCC(NC(=O)c4cccc(C#N)c4)C3)n2)cc(OC)c1OC (stereo not drawn); 0
CNC(=O)c1ccccc1Nc1nc(Nc2cccc(CS(C)(=O)=O)c2)ncc1C.O=CO; 0
Nc1nccc(-c2ccc3c(N)n[nH]c3c2)n1; 4
CN1CCN(CCNc2nc3cc(Oc4ccc(NC(=O)Nc5cc(C(F)(F)F)ccc5F)cc4)ccc3[nH]2)CC1.Cl.Cl; 38
NC(=O)Nc1sc(-c2ccc(F)cc2)cc1C(N)=O; 0
O=C(Nc1ccc(Oc2ccc3nc(NC(=O)C4CC4)cn3n2)c(F)c1)c1cccn(-c2ccccc2)c1=O; 0
Cn1ccc2ncnc(Oc3ccc(NC(=O)Nc4cccc(C(F)(F)F)c4)c(Cl)c3)c21; 11
CSc1nccc(-c2c(-c3ccc(F)cc3)ncn2CCCN2CCOCC2)n1.Cl; 0

The measured %Inh associated with CC(C(=O)NC1CCN(c2ccnc(Nc3ccc(F)cc3)n2)C1)c1ccc(Cl)cc1 (stereo not drawn) reads 0

====

# Tested on: MYLK4
# Condition parameters: concentration: 1 μM,replicates: in singlicate; n = 1
%Inh for assorted compounds
Give the number; % is assumed, so skip it.

O=C(Nc1cccc(C(F)(F)F)c1)c1cccc(Oc2ccc3nccn3n2)c1; 0
COc1cccc(OC)c1C(=O)Nc1cccc(-c2nn3ccccc3c2-c2ccnc(Nc3cccc(F)c3)n2)c1 [GSK361065]; 0
Cc1ccn2nc(-c3ccc(F)cc3)c(-c3ccncc3)c2c1.Cl [GW457859]; 0
C[C@@H](Oc1cc(-n2cnc3cc(-c4ccncc4)ccc32)sc1C(N)=O)c1ccccc1Cl [GSK479719]; 0

Sure, the documented %Inh for COc1ccc(Nc2nccc(N3CCC(NC(=O)c4cccc(C#N)c4)C3)n2)cc1 (stereo not drawn) [GSK1379730] is 0

Briefly, %Inh measured for O=C(Nc1cccc(Oc2ccc3nccn3n2)c1)Nc1cccc(C(F)(F)F)c1 : 0

Note to self: %Inh recorded for C[C@@H]1CNc2c(sc3ccc4nc(-c5ccc(O)cc5)ccc4c23)C(=O)N1 was 10

Per the record, CS(=O)(=O)c1cccc(CNc2nc(Nc3ccc4c(c3)[C@@H]3C[C@@H]4CNC3=O)ncc2C(F)(F)F)c1 has %Inh of 0

Memo: COC(=O)Nc1nc2cc(Oc3ccc(NC(=O)Nc4cc(C(F)(F)F)ccc4Cl)cc3)ccc2[nH]1.Cl [GW697465] , reported %Inh: 0

NC(=O)c1ccc(-c2cc3ncnc(SCC(=O)O)c3s2)cc1 has a reported %Inh of 0

Looking up O=C1NCCc2[nH]c(-c3ccncc3)cc21 , I see its %Inh listed as 5

====

# Tested on: VRK2
# Condition parameters: concentration: 1 μM,replicates: in singlicate; n = 1
Experimental readout: %Inh (%)
Provide only the numeric value, understood in %.

The examples below pair each entry with its known result.
CCNCC(Cc1ccccc1)NC(=O)c1cc(Br)c(-c2ccnc3[nH]ccc23)s1.Cl.Cl (stereo not drawn) [GSK1383280]; 0
O=C(NCC1CC1)c1ccc(-c2cc(C(=O)NC3CC3)ccc2F)cc1 [GW810445]; 19
COc1cc2nccc(Nc3ccc(Oc4ccccc4)cc3)c2cc1OC.Cl [GI261656]; 5
Cc1ccc(C(=O)Nc2ccc(Oc3ccc4nc(NC(=O)C5CC5)cn4c3)c(F)c2)c(=O)n1-c1ccccc1; 0
CCOC(=O)N1CCC(n2cnc(-c3ccc(F)cc3)c2-c2ccnc(N)n2)CC1 [SB-219952]; 27

Item: O=C(Nc1cccc(C(F)(F)F)c1)c1cccc(Oc2ccc3nccn3n2)c1 | %Inh: 0

Input NC(=O)c1ccc(-c2cc3ncnc(SCC(=O)O)c3s2)cc1 . Output %Inh: 0

Recorded %Inh (compound C[C@@H](Oc1cc(-n2cnc3ccc(-c4ccncc4)cc32)sc1C(N)=O)c1ccccc1Cl [GSK483724] ): 0

Noted for CCCC(=O)Nc1n[nH]c2ncccc12 [SB-601436] : its %Inh reads 0
